target_or_system: Cyclin E/CDK2 (Homo sapiens)
assay_text: Cyclin E/CDK2 in vitro kinase assay (33P-ATP, SPA beads)
pIC50: −log10 of the molar value.
Use criterion met when the recorded pIC50 is no lower than 5; use criterion not met when it is lower.

Consider the worked cases shown below.
Identify whether the reported pIC50 of the following compound is 5 or greater: Cc1cc(Nc2cc(C3CNCCS3)nc3c(-c4cnn(C)c4)cnn23)sn1 (centres unmarked)
criterion not met

Cc1cc(Nc2cc(C3CCCNC3)nc3c(-c4cnn(C)c4)cnn23)sn1 (centres unmarked) , same question.
criterion not met

Would you kindly look at the next entry?
Identify whether the reported pIC50 of the following compound is 5 or greater: Cc1cc(Nc2cc(N3CC[C@@H](N)C3)nc3c(-c4cnn(C)c4)cnn23)sn1
criterion not met
